What IC50 was measured for each of the following?
tested on: MGC-803; assay: Cytotoxicity against human MGC803 cells after 72 hrs by SRB assay; type: functional, cell-based; conditions: MGC-803, 72 h

# IC50 (compound: CCCC(=O)OC[C@H]1O[C@@H](Oc2cc(OC)cc(OC(=O)CCC)c2C(=O)c2ccc(OC(=O)CCC)cc2)[C@H](OC(=O)CCC)[C@@H](OC(=O)CCC)[C@@H]1OC(=O)CCC ) is > 100 µM

# IC50 (compound: COc1cc(O)c(C(=O)c2ccc(O)cc2)c(O[C@@H]2O[C@H](COC(C)=O)[C@@H](O)[C@H](O)[C@H]2O)c1 [MAHKOSIDE B] ) is > 100 µM

# IC50 (compound: COc1cc(OC(=O)c2ccccc2)c(C(=O)c2ccc(OC(=O)c3ccccc3)cc2)c(O[C@@H]2O[C@H](COC(=O)c3ccccc3)[C@@H](OC(=O)c3ccccc3)[C@H](OC(=O)c3ccccc3)[C@H]2OC(=O)c2ccccc2)c1 ) is > 100 µM

Turning now to a further compound:
# IC50 (compound: CCCCOc1ccc(C(=O)c2c(OCCCC)cc(OC)cc2O[C@@H]2O[C@H](CO)[C@@H](O)[C@H](O)[C@H]2O)cc1 ) is 49.2 µM

====

test system: MGC-803; experiment: Cytotoxicity against human MGC803 cells after 72 hrs by SRB assay; type: functional, cell-based; conditions: MGC-803, 72 h
result_type: pIC50
Numbers only, as −log10 of the molar value.

Some compounds with known pIC50 results, for comparison:
With MGC-803 as the test system, COc1ccc(COc2ccc(C(=O)c3c(OCc4ccc(OC)cc4)cc(OC)cc3O[C@@H]3O[C@H](CO)[C@@H](O)[C@H](O)[C@H]3O)cc2)cc1 showed pIC50 of 4.55

With MGC-803 as the test system, COc1cc(OCc2ccccc2)c(C(=O)c2ccc(OCc3ccccc3)cc2)c(O[C@@H]2O[C@H](CO)[C@@H](O)[C@H](O)[C@H]2O)c1 showed pIC50 of 4.35

Would you mind listing pIC50 for each of the following compounds?
1. COc1cc(OCCCBr)c(C(=O)c2ccc(OCCCBr)cc2)c(O[C@@H]2O[C@H](CO)[C@@H](O)[C@H](O)[C@H]2O)c1
2. COc1cccc(COc2ccc(C(=O)c3c(OCc4cccc(OC)c4)cc(OC)cc3O[C@@H]3O[C@H](CO)[C@@H](O)[C@H](O)[C@H]3O)cc2)c1
3. COc1cc(OC(C)=O)c(C(=O)c2ccc(OC(C)=O)cc2)c(O[C@@H]2O[C@H](COC(C)=O)[C@@H](OC(C)=O)[C@H](OC(C)=O)[C@H]2OC(C)=O)c1
4. COc1cc(OCCCN2CCCCC2)c(C(=O)c2ccc(OCc3ccccc3)cc2)c(OCc2ccccc2)c1

RESULT:
4.27
4.74
4.33
5.51

====

tested on: MGC-803; assay: Cytotoxicity against human MGC803 cells after 72 hrs by SRB assay; format: functional, cell-based; details: MGC-803, 72 h
result_type: IC50

Some compounds with known IC50 results, for comparison:
# IC50 (compound: CCOc1ccc(C(=O)c2c(OCC)cc(OC)cc2O[C@@H]2O[C@H](CO)[C@@H](O)[C@H](O)[C@H]2O)cc1 ) is > 100 µM

# IC50 (compound: COc1cc(OCC2CO2)c(C(=O)c2ccc(OCC3CO3)cc2)c(O[C@@H]2O[C@H](CO)[C@@H](O)[C@H](O)[C@H]2O)c1 (stereo partly drawn) ) is > 100 µM

# IC50 (compound: COc1cc(O)c(C(=O)c2ccc(O)cc2)c(O[C@@H]2O[C@H](CO)[C@@H](O)[C@H](O)[C@H]2O)c1 [MAHKOSIDE A] ) is > 100 µM

# IC50 (compound: C=CCOc1ccc(C(=O)c2c(OCC=C)cc(OC)cc2O[C@@H]2O[C@H](CO)[C@@H](O)[C@H](O)[C@H]2O)cc1 ) is > 100 µM

# IC50 (compound: COc1cc(O)c(C(=O)c2ccc(OCc3ccccc3)cc2)c(OCc2ccccc2)c1 ) is > 100 µM

Would you mind listing IC50 for each of the following compounds?
1. COc1cc(OC(=O)c2ccc(Cl)cc2)c(C(=O)c2ccc(OC(=O)c3ccc(Cl)cc3)cc2)c(O[C@@H]2O[C@H](COC(=O)c3ccc(Cl)cc3)[C@@H](OC(=O)c3ccc(Cl)cc3)[C@H](OC(=O)c3ccc(Cl)cc3)[C@H]2OC(=O)c2ccc(Cl)cc2)c1
2. COc1cc(OCCCBr)c(C(=O)c2ccc(OCc3ccccc3)cc2)c(OCc2ccccc2)c1
3. COc1cc(OC)c(C(=O)c2ccc(O)cc2)c(O[C@@H]2O[C@H](CO)[C@@H](O)[C@H](O)[C@H]2O)c1

RESULT:
1. > 100 µM
2. > 100 µM
3. > 100 µM
